The origin of these recorded values is paper PMC9352680.

Biological target: T1, PUF4 RNA-binding domain (Saccharomyces cerevisiae, UniProt P25339 537-888)
T1 sequence: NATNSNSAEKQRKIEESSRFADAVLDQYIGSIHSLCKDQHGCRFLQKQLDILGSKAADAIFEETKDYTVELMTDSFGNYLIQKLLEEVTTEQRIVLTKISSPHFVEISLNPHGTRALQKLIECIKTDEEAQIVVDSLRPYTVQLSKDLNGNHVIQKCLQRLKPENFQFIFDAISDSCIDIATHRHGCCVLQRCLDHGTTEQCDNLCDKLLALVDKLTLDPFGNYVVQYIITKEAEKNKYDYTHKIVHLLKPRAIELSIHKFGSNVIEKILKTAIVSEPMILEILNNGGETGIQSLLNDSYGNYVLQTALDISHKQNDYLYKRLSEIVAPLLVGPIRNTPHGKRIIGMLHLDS
Assay: Mg; RNA-MaP; 20 mM Na-HEPES pH 7.4, 30 mM KOAc, 0.75 mM MgCl2, 0.1% Tween-20, 5% glycerol, 0.1 mg/mL BSA, 2 mM DTT; 25 C; 0.0125-409.6 nM protein
Conditions: tags: N-His6-TEV cleaved; C-SNAP kept, Cy3B-labelled; label: tethered on chip by stalled RNA polymerase
With a cut-off of 300 nM, any Kd strictly below it is called TRUE; any Kd meeting it or above is called FALSE.

UCUCUUCAUGUAUAUACCUCUCUU (ssRNA) [Id_ii_S1_P3E.2_K3.1_C3.2_[T-1A]_H3.1_A3.1_F3.1_T3.2_[T9C]_[A10C]]
TRUE

Query :: Decide: Kd of UCUCUUGCUAUAUUAUUAUUUCUCUU (ssRNA) [Id_ii_S1_P5E.3_K5.2_C5.2_[C-2G]_[T-1C]_H5.2_A5.1_F5.1_T5.2_[A12T]] strictly below 300 nM?
Result :: FALSE

Query :: Decide: Kd of Ib_S4_P4E.1_K4.1_C4.1_H4.1_[A4C]_A4.1_[A6C]_F4.1_T4.1 (ssRNA) RNA: UUUGACAACUGAUCGUUCUUUCUUGUCUCUUAUUCUUUCUCGAUCAGUUGUCUUU strictly below 300 nM?
Result :: TRUE

Query :: Decide: Kd of ACAAACGUACACUUAUUAAUACAAAC (ssRNA) [Id_ii_S3_P5E.4_K5.3_C5.2_[C-2G]_H5.3_A5.1_F5.1_T5.2_[T11A]_[A12T]] strictly below 300 nM?
Result :: FALSE

Query :: Decide: Kd of UCUCUUUGUAUAUCGCUCUCUU (ssRNA) [Ic_S1_P5E.1_K5.1_C5.1_H5.1_A5.1_[T6A]_[A7T]_F5.1_[T8C]_[T9G]_[A10C]_T5.1] strictly below 300 nM?
Result :: TRUE

Query :: Decide: Kd of Ib_S2_P5E.1_K5.1_C5.1_H5.1_[T1C]_A5.1_[T5C]_F5.1_T5.1 (ssRNA) RNA: UUUGAUUAAUAUGAUAUCGUUCUUUCUCGUACUAUUAUUCUUUCUCGAUAUCAUAUUAAUCUUU strictly below 300 nM?
Result :: FALSE
